target.or.system: BTK(C481S) kinase (Homo sapiens (Human), UniProt Q06187, C481S)
Sequence (Q06187 whole entry C481S): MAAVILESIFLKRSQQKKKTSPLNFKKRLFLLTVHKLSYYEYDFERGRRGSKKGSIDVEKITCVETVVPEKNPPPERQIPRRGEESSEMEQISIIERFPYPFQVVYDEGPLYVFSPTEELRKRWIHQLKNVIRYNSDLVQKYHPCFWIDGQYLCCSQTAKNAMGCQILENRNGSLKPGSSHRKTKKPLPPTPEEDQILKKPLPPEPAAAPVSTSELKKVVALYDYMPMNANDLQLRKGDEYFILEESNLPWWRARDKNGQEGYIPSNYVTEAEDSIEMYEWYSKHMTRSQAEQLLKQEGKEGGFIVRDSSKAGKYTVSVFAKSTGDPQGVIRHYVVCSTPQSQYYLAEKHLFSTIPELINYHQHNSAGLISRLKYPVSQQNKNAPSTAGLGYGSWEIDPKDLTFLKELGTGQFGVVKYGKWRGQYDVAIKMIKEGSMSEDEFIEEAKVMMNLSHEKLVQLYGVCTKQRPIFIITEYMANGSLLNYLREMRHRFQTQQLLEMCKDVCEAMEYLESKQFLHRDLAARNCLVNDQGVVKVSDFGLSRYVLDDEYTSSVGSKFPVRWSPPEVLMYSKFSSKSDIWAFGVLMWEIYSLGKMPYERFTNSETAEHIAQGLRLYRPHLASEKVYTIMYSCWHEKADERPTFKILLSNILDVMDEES
assay.text: Inhibitory activity on BTK(C481S) kinase
study.conditions: ATP 10 μM
pIC50: −log10 of the molar value.
Label label 0 if pIC50 falls below 8; label label 1 in every other case.

Example cases with answers are listed next.
| compound | discrete.label |
| --- | --- |
| CN1CCN([C@@H]2CCCN(c3cnc(C(N)=O)c(Nc4ccc(C5CCC6(CC5)CCN(CC5Cc7ccc8c(C9CCC(=O)NC9=O)noc8c7C5)CC6)cc4)n3)C2)C1=O (some centres unmarked) [Compound 50] | label 1 |
| CN1CCN([C@@H]2CCCN(c3cnc(C(N)=O)c(Nc4ccc(C5CCN(C6CN(c7ccc8c(C9CCC(=O)NC9=O)noc8c7)C6)CC5)cc4)n3)C2)C1=O (some centres unmarked) [Compound 10] | label 0 |

Hello, I need to know if CN1CCN([C@@H]2CCCN(c3cnc(C(N)=O)c(Nc4ccc(C5CCC(N6Cc7ccc8c(C9CCC(=O)NC9=O)noc8c7C6)CC5)cc4)n3)C2)C1=O (some centres unmarked) [Compound 33] has measured pIC50 not below 8. Thanks! label 0

====

Record form. Attribute: TV on d 12 Mean ± SD. Fill in for each entry.
Test system: TMD-8 xenograft tumors
assay.text: In vivo drug efficacy, TMD-8 mouse subcutaneous xenograft tumors
Design: species or system NOD-SCID mice
study.conditions: 30 mg/kg, qd, i.g.; day 12
Give bare numbers, in mm^3.

Solved cases (4 shown):
| compound | numeric.readout |
| --- | --- |
| NC(=O)c1ncc(N2CCCCC2)nc1Nc1ccc(C2CCN(C[C@@H]3CC[C@@H](n4ccc5c6c(C7CCC(=O)NC7=O)noc6ccc54)C3)CC2)cc1 (some centres unmarked) | 286 |
| NC(=O)c1ncc(N2CCCCC2)nc1Nc1ccc(C2CCN(C3Cc4ccc5c(C6CCC(=O)NC6=O)noc5c4C3)CC2)cc1 (centres unmarked) | 246 |
| NC(=O)c1ncc(N2CCCCC2)nc1Nc1ccc(N2CCC(CN3CCc4ccc5c(C6CCC(=O)NC6=O)noc5c4CC3)CC2)cc1 (centres unmarked) | 246 |
| CN1CCN([C@@H]2CCCN(c3cnc(C(N)=O)c(Nc4ccc(C5CCN(C6CN(c7ccc8c(C9CCC(=O)NC9=O)noc8c7)C6)CC5)cc4)n3)C2)C1=O (some centres unmarked) | 235 |

For the compound NC(=O)c1ncc(N2CCCCC2)nc1Nc1ccc(C2CCN(C[C@@H]3CC[C@H](n4ccc5c6c(C7CCC(=O)NC7=O)noc6ccc54)C3)CC2)cc1 (some centres unmarked) , what TV on d 12 Mean ± SD is on record? 253

====

Test system: TMD8-BTK(C481S) cells
assay.text: Inhibitory activity on TMD8-BTK(C481S) cell proliferation (CCK-8)
Assay type: cell-based
study.conditions: 72 h, 72 h incubation
recorded.endpoint: pIC50
Answers are plain numbers, as −log10 of the molar value.

Hi, could you look up pIC50 for each item in my list?
1. CN1CCN(C2CCCN(c3cnc(C(N)=O)c(Nc4ccc(C5CCC6(CC5)CN(C5Cc7ccc8c(C9CCC(=O)NC9=O)noc8c7C5)C6)cc4)n3)C2)C1=O (stereo not drawn)
2. CN1CCN([C@@H]2CCCN(c3cnc(C(N)=O)c(Nc4ccc(C5CCN(C[C@H]6CCN(c7cccc8c(C9CCC(=O)NC9=O)noc78)C6)CC5)cc4)n3)C2)C1=O (stereo partly drawn)
3. NC(=O)c1ncc(N2CCCCC2)nc1Nc1ccc(C2CCN(CC3Cc4ccc5c(C6CCC(=O)NC6=O)noc5c4C3)CC2)cc1 (stereo not drawn)

1. 8.01
2. 7.74
3. 8.01
